Test: protein stability index of a GFP-peptide fusion (yeast GPS) (PSI 1-4); higher = more stable; sorted into four equal gates, so the index is relative within each strain
Conditions: san1∆
Returns one of 1 (yes) or 0 (no); 1 (yes) when protein stability index is >= 3.

IIAELSFLKVDPDLGLD [YJL039C/NUP192]
1 (yes)
PLLSLDVTPISMFGSDQ [RPN4]
1 (yes)

Qu. Could you verify whether the entry AETLAEELINAAKGSST [RPS5] shows protein stability index of no less than 3?
Ans. 0 (no)

Qu. Decide: protein stability index of RIGTIVHKERHDGGFDL [RPS4A] >= 3?
Ans. 0 (no)

----------
Assay: protein stability index of a GFP-peptide fusion (yeast GPS) (PSI 1-4); higher = more stable; sorted into four equal gates, so the index is relative within each strain
Conditions: ubr1∆
Catalogue of sequences with associated protein stability index
Quick one: just the number, no unit, thanks!

Here are 3 sequences together with their reported answers.
VTADTVILFDSDWNPQA [ISW2]
2.52
DLLKLVHLSNGYKMIPG [FAS1]
2.24
ILSGFHNAGPVAGAGAA [RPP1B]
2.65

Qu. Form field: reported protein stability index of KLNDSQRKTVNSDDILS [POP1]
Ans. 2.89

Qu. Which protein stability index is listed for LIPFIVKQVLLSVEIGV [NUT1] ?
Ans. 1.74

Qu. Need protein stability index of MVLYKRKPILLPDPKPL [ITC1] , thanks.
Ans. 2.66

Qu. Consider the sequence shown here: YQISAYQTRARQKARTD [RPR2] What is its recorded protein stability index?
Ans. 2.41

Qu. // protein stability index lookup, key: KQSGFGGQTKPVFHKKA [RPL42A]
Ans. 3.04

Qu. Need protein stability index of SRKRAKKMTKKAKRSNL [PRP8] , thanks.
Ans. 2.52

Qu. Look up protein stability index: LQKKVASILLALTQMDQ [RPB3]
Ans. 2.62

Qu. Could you share which protein stability index value was measured for SYDKTVKLWEEDPDQEE [YGL100W/SEH1] ?
Ans. 3.29

Qu. protein stability index for ISQVSSIHAIGSIKEDY [RPB7] ?
Ans. 2.79

Qu. Give its protein stability index value. Item: GVILMFAAILVLLVLPF [COB]
Ans. 1.14

Qu. Please report the recorded protein stability index for KAIELLEKALQGATNEG [SRP72] .
Ans. 1.18

Qu. Endpoint output: protein stability index of VLIAQERSAGNIVQVFK [RPB2] . Value?
Ans. 3.11

----------
Assay: protein stability index of a GFP-peptide fusion (yeast GPS) (PSI 1-4); higher = more stable; sorted into four equal gates, so the index is relative within each strain
Conditions: san1∆
In this scheme, each record receives a class according to its protein stability index; the ranges are Low = under 2, Medium = from 2 up to 3, High = 3 and over

ILDPQVTRFTTWNGSPF [YJL039C/NUP192]
Low
LDYVRTPAAATSPIDIR [SNF2]
Medium
SCKDSQLKWAQNTIDDT [YIL149C/MLP2]
Medium

Next:
Qu. Hi, small favor: classify KYSKLVDNVTLESYKTQ [SRP72] by its protein stability index when you get a moment.
Ans. High

----------
Experiment: protein stability index of a GFP-peptide fusion (yeast GPS) (PSI 1-4); higher = more stable; sorted into four equal gates, so the index is relative within each strain
Details: pdr5∆
Everything with protein stability index lower than 3 is not met; everything else, including exactly 3, is met.

Use the examples below as a reference point.
PTTMVTNQKDTNDHVDK [ISW2]
not met
GVEYRLRLRISRKRNEE [RPL31A]
not met
PLLPIVEELMKKRRGSR [SNU114]
not met
VTKITDMLLHKYYIVSS [SRB8]
not met
DMPCDVLAKRMANLSQI [SCL1]
not met

Continue with the next sequence.
Qu. Say whether YPDLKAFHNNLKFLYLL [MED1] shows protein stability index of 3 or more.
Ans. not met

Data credit: the supplement of paper PMC9732359
